- Method description: in vitro
- Assay conditions: human
No end group written: not given here.
Measured endpoint: viability

> print(dat)
                              substance  recorded.result
1  LLPIVGNLLKSLL-NH2 [TB, Temporin 1Tb]             ~90%

====

- Method description: in vitro
- Assay conditions: human
No end group written: not given here.
Measured endpoint: viability

> print(dat)
                              substance  recorded.result
1  LLPIVGNLLKSLL-NH2 [TB, Temporin 1Tb]             ~90%
